- System: HepG2
- EXPERIMENT_DESCRIPTION: Cytotoxicity against human HepG2 cells assessed as surviving fraction at 25 uM after 48 hrs by SRB assay relative to control
- Type: functional
EXPERIMENTAL_READOUT: Ratio

>>> value("CCOC(=O)c1c(-c2ccc(OC)cc2)c(C#N)c(=O)n(/N=C(\\C)c2ccc(NS(=O)(=O)c3ccc(Cl)cc3)cc2)c1N")
0.637
>>> value("CCOC(=O)c1c(-c2ccccc2)c(C#N)c(=O)n(/N=C(\\C)c2ccc(NS(=O)(=O)c3ccc(Cl)cc3)cc2)c1N")
0.287
>>> value("CCOC(=O)c1c(/C=C/c2ccccc2)c(C#N)c(=O)n(/N=C(\\C)c2ccc(NS(=O)(=O)c3ccc(Cl)cc3)cc2)c1N")
0.336
>>> value("COc1cccc2c1C(=O)c1c(O)c3c(c(O)c1C2=O)C[C@@](O)(C(=O)CO)C[C@@H]3O[C@H]1C[C@H](N)[C@H](O)[C@H](C)O1")
0.48
>>> value("CCOC(=O)c1c(-c2ccccc2OC)c(C#N)c(=O)n(/N=C(\\C)c2ccc(NS(=O)(=O)c3ccc(Cl)cc3)cc2)c1N")
0.129
>>> value("CCO/C=C(\\C#N)C(=O)N/N=C(\\C)c1ccc(NS(=O)(=O)c2ccc(Cl)cc2)cc1")
0.406
>>> value("CCOC(=O)c1c(-c2ccccc2Cl)c(C#N)c(=O)n(/N=C(\\C)c2ccc(NS(=O)(=O)c3ccc(Cl)cc3)cc2)c1N")
0.545

* * *

- Tested on: HepG2
- EXPERIMENT_DESCRIPTION: Cytotoxicity against human HepG2 cells assessed as surviving fraction at 25 uM after 48 hrs by SRB assay relative to control
- Type: functional
EXPERIMENTAL_READOUT: Ratio

>>> value("CSC(SC)=C(C#N)C(=O)N/N=C(\\C)c1ccc(NS(=O)(=O)c2ccc(Cl)cc2)cc1")
0.44
>>> value("CCOC(=O)c1c(-c2ccc(N(C)C)cc2)c(C#N)c(=O)n(/N=C(\\C)c2ccc(NS(=O)(=O)c3ccc(Cl)cc3)cc2)c1N")
0.432
>>> value("C/C(=N\\NC(=O)CC#N)c1ccc(NS(=O)(=O)c2ccc(Cl)cc2)cc1")
0.159
>>> value("CCOC(=O)c1c(-c2ccco2)c(C#N)c(=O)n(/N=C(\\C)c2ccc(NS(=O)(=O)c3ccc(Cl)cc3)cc2)c1N")
0.367

* * *

Known Ratio of a selection of compounds
- System: HepG2
- EXPERIMENT_DESCRIPTION: Cytotoxicity against human HepG2 cells assessed as surviving fraction at 25 uM after 48 hrs by SRB assay relative to control
- Format: functional
EXPERIMENTAL_READOUT: Ratio

>>> value("C/C(=N\\NC(=O)/C(C#N)=C/N(C)C)c1ccc(NS(=O)(=O)c2ccc(Cl)cc2)cc1")
0.386
>>> value("CCOC(=O)c1c(-c2ccc(C)cc2)c(C#N)c(=O)n(/N=C(\\C)c2ccc(NS(=O)(=O)c3ccc(Cl)cc3)cc2)c1N")
0.25
>>> value("CCOC(=O)c1c(-c2ccc(Cl)cc2)c(C#N)c(=O)n(/N=C(\\C)c2ccc(NS(=O)(=O)c3ccc(Cl)cc3)cc2)c1N")
0.463
>>> value("CCOC(=O)c1c(-c2cccc([N+](=O)[O-])c2)c(C#N)c(=O)n(/N=C(\\C)c2ccc(NS(=O)(=O)c3ccc(Cl)cc3)cc2)c1N")
0.524
>>> value("CCOC(=O)c1c(-c2ccc3c(c2)OCO3)c(C#N)c(=O)n(/N=C(\\C)c2ccc(NS(=O)(=O)c3ccc(Cl)cc3)cc2)c1N")
0.606
>>> value("C/C(=N\\NC(=O)C(C#N)C(=S)S)c1ccc(NS(=O)(=O)c2ccc(Cl)cc2)cc1 (configuration not stated)")
0.448
>>> value("CCOC(=O)c1c(-c2ccc([N+](=O)[O-])cc2)c(C#N)c(=O)n(/N=C(\\C)c2ccc(NS(=O)(=O)c3ccc(Cl)cc3)cc2)c1N")
0.586
